Tested on: PKB Ser473 phosphorylation in Rat1-myr-HA-p110 alpha cells
Experiment: Reverse protein array assay, PKB Ser473 phosphorylation in Rat1-myr-p110 alpha cells
Assay type: cell-based
Details: 0.5 h, pAkt Ser473, 30 minutes compound incubation, read-out: p-PKB IC50
Please go through the items and note down their pIC50.
The value called pIC50 is obtained by taking minus log10 of the concentration in mol/L.

Notebook: pull reported pIC50 for PKB Ser473 phosphorylation in Rat1-myr-HA-p110 alpha cells, entry CCN(C)C(=O)Cn1cc(-n2c(=O)n(C)c3cnc4ccc(-c5ccc(-n6cccn6)cc5)cc4c32)c(C)n1 [Example 51.6] 7.92

Notebook: pull reported pIC50 for PKB Ser473 phosphorylation in Rat1-myr-HA-p110 alpha cells, entry CN(C)c1ncc(-c2ccc3ncc4c(c3c2)n(-c2cn(C)nc2Cl)c(=O)n4C)cn1 [Example 6.3] 8.05

Notebook: pull reported pIC50 for PKB Ser473 phosphorylation in Rat1-myr-HA-p110 alpha cells, entry Cc1ncc(-c2ccc3ncc4c(c3c2)n(-c2cn(C)nc2C)c(=O)n4C)cc1N [Example 88.2] 7.62

Notebook: pull reported pIC50 for PKB Ser473 phosphorylation in Rat1-myr-HA-p110 alpha cells, entry Cc1nn(C)cc1-n1c(=O)n(C)c2cnc3ccc(-c4cccc(NS(C)(=O)=O)c4)cc3c21 [Example 47] 7.14

Notebook: pull reported pIC50 for PKB Ser473 phosphorylation in Rat1-myr-HA-p110 alpha cells, entry CCCOc1ccc(-c2ccc3ncc4c(c3c2)n(-c2cn(C)nc2C)c(=O)n4C)cn1 [Example 55] 7.70

Notebook: pull reported pIC50 for PKB Ser473 phosphorylation in Rat1-myr-HA-p110 alpha cells, entry CCOc1ccc(-c2ccc3ncc4c(c3c2)n(-c2cn(CC(=O)N(C)CC)nc2C)c(=O)n4C)cn1 [Example 136] 7.96

Notebook: pull reported pIC50 for PKB Ser473 phosphorylation in Rat1-myr-HA-p110 alpha cells, entry CCOc1cc(-c2ccc3ncc4c(c3c2)n(-c2cn(C)nc2C)c(=O)n4C)ccc1OC [Example 28.3] 8.05
